B1: Zinc finger MYM-type protein 6, residues 427 to 504; numbered along this chain, O95789 (parent)
chain: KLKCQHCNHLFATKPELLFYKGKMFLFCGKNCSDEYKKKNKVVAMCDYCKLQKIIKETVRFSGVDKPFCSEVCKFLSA

Variants of: B1
Assay: abundance fitness (aPCA) (normalised: wild type 0, dead -1); higher = more abundant; growth selection in yeast, the domain comes from the species named
Conditions: Homo sapiens
Class membership depends on abundance fitness alone; the intervals are bottom bin (below -0.1), middle bin (-0.1 to below -0.06), top bin (-0.06 or more)

> print(dat)
   changes         cat
1     N31Y  bottom bin
2     E35L  middle bin
3     K66Q  bottom bin
4     S62A     top bin
5     I54C     top bin

-- ask Tag the class for `I55K`
-- reply bottom bin

-- ask Tag the class for `L76P`
-- reply bottom bin

-- ask Tag the class for `D34S`
-- reply top bin

-- ask Tag the class for `A78V`
-- reply bottom bin

-- ask Tag the class for `G22C`
-- reply middle bin

Origin of measurements: the Human Domainome abundance scans (Beltran et al. 2025)
